Data origin, for the record: PubChem BioAssay AID248

test system: L1210 leukemia ip in BDF1 mice, survival T/C; assay: NCI In Vivo Anticancer Drug Screen. Data for tumor model L1210 Leukemia (intraperitoneal) in B6D2F1 (BDF1) mice; settings: endpoint: mean survival time; dose: 200.0 mg/kg/injection; schedule: Q01DX001 (ip); vehicle: saline; higher = longer survival
Inconclusive results and toxic doses are left out.
Quick reference for T/C among some compounds

Past entries and their recorded results:
> print(dat)
                                   compound  endpoint               val
1                           CCOC(=O)CC(=O)O       T/C   97 % of control
2   CC(=O)C(C)C(C)(C)C (stereo unspecified)       T/C   92 % of control
3                       CC(=O)NC(=O)NC(C)=O       T/C   94 % of control
4  CN(C(=O)OCc1ccccc1)c1ccc(C(=O)NC(CC(=O)O)CC(=O)O)cc1       T/C   96 % of control
5  COS(=O)(=O)c1ccc([N+](=O)[O-])cc1[N+](=O)[O-]       T/C   94 % of control
6  Cc1c(-c2ccccc2)oc2c(C(=O)OCCN3CCCCC3)cccc2c1=O       T/C  102 % of control

Task: What is its T/C for L1210 leukemia ip in BDF1 mice, survival T/C? Entry: `O=C(COC(=O)c1c(Cl)c(Cl)c(Cl)c(Cl)c1C(=O)O)c1ccc(-c2ccccc2)cc1`
Output: 102 % of control

Task: Now try CC(=O)Oc1ccc(C2CC(=O)N(CCN(C)C)C2=O)cc1 (stereo unspecified) .
Output: 90 % of control

Task: Now try CC1C(C(N)=O)C(=O)OC1(C)C (stereo unspecified) .
Output: 104 % of control

Task: Now try CC(C)(C)OC(=O)NC(Cc1ccccc1)C(=O)O (stereo unspecified) .
Output: 94 % of control

Task: Now try CCOC(=O)C1=NN(c2ccccc2)C(=O)C1N=Nc1ccc(S(=O)(=O)Nc2onc(C)c2C)cc1 (stereo unspecified) .
Output: 98 % of control

====

tested on: L1210 leukemia ip in BDF1 mice, survival T/C; assay: NCI In Vivo Anticancer Drug Screen. Data for tumor model L1210 Leukemia (intraperitoneal) in B6D2F1 (BDF1) mice; conditions: endpoint: mean survival time; dose: 200.0 mg/kg/injection; schedule: Q04DX003 (ip); vehicle: saline; higher = longer survival
Inconclusive results and toxic doses are left out.
endpoint: T/C

> print(dat)
                                   compound               val
1    C1COC(COCC2CO2)C1 (stereo unspecified)   98 % of control
2  CCCC(NC(C)=O)C(=O)O (stereo unspecified)   96 % of control
3                               Cc1cc(N)on1  101 % of control
4           O=c1oc2cccc(O)c2c(O)c1Cc1ccccc1   94 % of control

Task: Given the entry `CC(C)(C)SCCC(=O)NC1CCCCC1` , report its measured T/C.
Output: 101 % of control

Task: Now try `C/C(=C(/CCO)SCCC(=O)c1ccc(Cl)cc1)N(C=O)Cc1cnc(C)nc1N` .
Output: 93 % of control

Task: Now try `Nn1cnnc1` .
Output: 96 % of control

Task: Now try Cc1nc(N)[nH]c(=O)c1CC(C)O (stereo unspecified) .
Output: 100 % of control

Task: Now try `Nc1ncnn1C(=S)NCc1ccccc1` .
Output: 90 % of control

Task: Now try `O=C(O)C(F)(F)F` .
Output: 93 % of control

Task: Now try COC(=O)C1CCN1C(C)(C)C (stereo unspecified) .
Output: 105 % of control

====

Quick reference for T/C among some compounds
system: L1210 leukemia ip in BDF1 mice, survival T/C; assay: NCI In Vivo Anticancer Drug Screen. Data for tumor model L1210 Leukemia (intraperitoneal) in B6D2F1 (BDF1) mice; conditions: endpoint: mean survival time; dose: 400.0 mg/kg/injection; schedule: Q04DX002 (ip); vehicle: Klucel (hydroxypropylcellulose) (HPC); higher = longer survival
Inconclusive results and toxic doses are left out.

Past entries and their recorded results:
> print(dat)
                                   compound  endpoint               val
1          O=S1(=O)CC(c2ccccc2)(c2ccccc2)N1       T/C   96 % of control
2                        N#CCC(=O)Nc1ccccc1       T/C  106 % of control
3             O=[N+]([O-])c1ccc(O)c2ncccc12       T/C   91 % of control
4  O=C(NCCN1C(=O)C2C3CCC(O3)C2C1=O)Nc1ccc([N+](=O)[O-])cc1[N+](=O)[O-] (stereo not drawn)       T/C  108 % of control

Task: Given the entry `S=P(c1ccccc1)(c1ccccc1)P(=S)(c1ccccc1)c1ccccc1` , report its measured T/C.
Output: 92 % of control

Task: Now try `COC(=O)N/N=C/c1ccccc1Cl` .
Output: 96 % of control

Task: Now try `CC(=O)Cc1c[nH]c2ccccc12` .
Output: 111 % of control

Task: Now try CC1(C(Cl)(Cl)Cl)C=CC(=NOCC(=O)O)C=C1 (stereo not drawn) .
Output: 98 % of control

====

Quick reference for T/C among some compounds
system: L1210 leukemia ip in BDF1 mice, survival T/C; assay: NCI In Vivo Anticancer Drug Screen. Data for tumor model L1210 Leukemia (intraperitoneal) in B6D2F1 (BDF1) mice; conditions: endpoint: mean survival time; dose: 100.0 mg/kg/injection; schedule: Q04DX003 (ip); vehicle: saline; higher = longer survival
Inconclusive results and toxic doses are left out.

Past entries and their recorded results:
> print(dat)
                                   compound               val
1  O=C(C[n+]1cccc(C(=O)Nc2ccccc2)c1)Nc1ccc(Cl)cc1  102 % of control
2                       NNS(=O)(=O)c1ccccc1  103 % of control
3                  NC(=O)c1cc(O)c(Br)c(O)c1   98 % of control

Task: Given the entry O=C(Nc1ccccc1O)C(O)C(O)C(O)C(O)CO (centres undefined) , report its measured T/C.
Output: 87 % of control

====

tested on: L1210 leukemia ip in BDF1 mice, survival T/C; assay: NCI In Vivo Anticancer Drug Screen. Data for tumor model L1210 Leukemia (intraperitoneal) in B6D2F1 (BDF1) mice; conditions: endpoint: mean survival time; dose: 50.0 mg/kg/injection; schedule: Q04DX002 (ip); vehicle: Klucel (hydroxypropylcellulose) (HPC); higher = longer survival
Inconclusive results and toxic doses are left out.
endpoint: T/C

Past entries and their recorded results:
> print(dat)
                                   molecule              val
1  CC([NH-])C(C)[NH-].[Cl][Pd][Cl] (centres undefined)  93 % of control
2  c1cc[c]([Pb]([S]c2ccccn2)([c]2ccccc2)[c]2ccccc2)cc1  88 % of control

Task: Given the entry `ClC1=c2ccccc2=C2C(Cl)=c3ccccc3=C12` , report its measured T/C.
Output: 97 % of control

Task: Now try CC1CC(C)(C)NCCNC(C)CC(C)(C)NCCN1 (centres undefined) .
Output: 94 % of control

====

system: L1210 leukemia ip in BDF1 mice, survival T/C; test: NCI In Vivo Anticancer Drug Screen. Data for tumor model L1210 Leukemia (intraperitoneal) in B6D2F1 (BDF1) mice; details: endpoint: mean survival time; dose: 300.0 mg/kg/injection; schedule: Q04DX003 (ip); vehicle: saline
Inconclusive results and toxic doses are left out. Cut-off read from the data, not from the text of the source: active = T/C of 150% or more; inactive = T/C below 125%.
Outcome (select one): TRUE for active, FALSE for inactive

Task: For `O=C(O)C(=O)Cc1cccc(Cl)c1[N+](=O)[O-]` , which call appears in the assay record?
Output: FALSE

Task: Now try `C=CCn1c2ccccc2c2c(C)c3cnccc3c(C)c21` .
Output: TRUE

Task: Now try `O=C(O)c1cccc2c1ccc1ccccc12` .
Output: FALSE

Task: Now try `OCCNCc1ccc2ccccc2n1` .
Output: FALSE

====

Quick reference for T/C among some compounds
test system: L1210 leukemia ip in BDF1 mice, survival T/C; assay: NCI In Vivo Anticancer Drug Screen. Data for tumor model L1210 Leukemia (intraperitoneal) in B6D2F1 (BDF1) mice; conditions: endpoint: mean survival time; dose: 100.0 mg/kg/injection; schedule: Q04DX002 (ip); vehicle: gum acacia; higher = longer survival
Inconclusive results and toxic doses are left out.

Past entries and their recorded results:
> print(dat)
                                   compound                                       tgt  endpoint              val
1           Cc1ccc(NC(=O)COc2ccc(C)cc2C)cc1  L1210 leukemia ip in BDF1 mice, survival T/C       T/C  95 % of control
2  CC1CN=C(c2c(O)ccc3ccccc23)S1 (centres undefined)  L1210 leukemia ip in BDF1 mice, survival T/C       T/C  96 % of control
3             Cc1ccc(Nc2n[nH]c(=S)s2)c(C)c1  L1210 leukemia ip in BDF1 mice, survival T/C       T/C  96 % of control

Consider the additional compound presented here.
Task: Given the entry `S=P(NNc1ccccc1)(NNc1ccccc1)c1ccc(Cl)cc1` , report its measured T/C.
Output: 89 % of control
